// provenance: the supplement of paper PMC8728848

Listing of entries alongside the reported glycan array binding signal (z-score).
Experimental target: Gal3S(b1-3)GalNAc
Assay summary: glycan array binding signal (z-score within array); higher = stronger binding
Assay conditions: glycan notation: IUPAC condensed, linker removed
Shown is part of a subset that was picked to be rich in the strongest signals.
// no unit string in output, number only

These recorded examples may help you get a feel for the data.
Data request: Fill in: glycan array binding signal (z-score) of SSR2 (Sclerotium rolfsii) (protein) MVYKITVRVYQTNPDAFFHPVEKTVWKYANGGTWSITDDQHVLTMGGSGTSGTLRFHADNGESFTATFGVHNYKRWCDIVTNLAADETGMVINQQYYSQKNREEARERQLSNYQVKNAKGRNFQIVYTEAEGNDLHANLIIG is ___
Data returned: 4.27

Data request: Let us now turn to AFL (Aspergillus fumigatus), Q4WW81 (protein) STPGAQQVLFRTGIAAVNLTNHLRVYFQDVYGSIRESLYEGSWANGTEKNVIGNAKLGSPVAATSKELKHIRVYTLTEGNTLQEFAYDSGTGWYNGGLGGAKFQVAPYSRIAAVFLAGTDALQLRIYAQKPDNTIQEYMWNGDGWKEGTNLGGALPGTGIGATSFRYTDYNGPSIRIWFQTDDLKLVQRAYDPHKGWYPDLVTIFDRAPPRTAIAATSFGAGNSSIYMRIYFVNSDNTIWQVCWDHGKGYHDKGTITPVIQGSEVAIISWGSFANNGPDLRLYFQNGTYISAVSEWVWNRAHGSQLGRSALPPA
Data returned: -0.387

Now consider a different binder.
Data request: Fill in: glycan array binding signal (z-score) of Flo1 (Saccharomyces cerevisiae), P32768 (protein) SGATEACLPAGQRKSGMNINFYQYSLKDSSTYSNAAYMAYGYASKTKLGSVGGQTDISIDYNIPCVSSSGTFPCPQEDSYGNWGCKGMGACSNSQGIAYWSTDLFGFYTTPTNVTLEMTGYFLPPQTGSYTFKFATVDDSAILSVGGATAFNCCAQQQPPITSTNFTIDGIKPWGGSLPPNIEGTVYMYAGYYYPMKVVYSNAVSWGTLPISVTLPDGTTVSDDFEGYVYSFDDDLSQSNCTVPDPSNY is ___
Data returned: -0.392
